As shown below, each of these molecules has a reported Ki value.
- target.of.assay: Sigma intracellular receptor 2 (Homo sapiens)
- Sequence (Q5BJF2 whole entry): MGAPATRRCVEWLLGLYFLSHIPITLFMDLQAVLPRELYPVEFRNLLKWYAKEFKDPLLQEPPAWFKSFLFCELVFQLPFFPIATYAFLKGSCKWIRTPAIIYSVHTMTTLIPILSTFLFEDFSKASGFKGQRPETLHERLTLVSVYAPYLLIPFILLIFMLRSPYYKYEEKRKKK
- method.description: Binding affinity to S2R (unknown origin) assessed as inhibition constant
Note: unit nM is implicit; provide only the numeric part.

molecule: COc1ccc(CCN2CCN(CCCc3ccccc3)CC2)cc1OC [[11C]SA4503]
Ki (nM): 90

Now for the molecule whose Ki we want.
# query: Ki of entry CN1CCN(CCc2ccc(Cl)c(Cl)c2)CC1
6.5

###

- method.description: Octanol/water partition coefficient, log P of the compound
- Assay type: physicochemical
endpoint.name: logP
I'd appreciate a reply containing only the number, no unit.

Entry CCOC(=O)C(c1ccccc1)N(C)C1CCN(Cc2ccccc2)CC1 (racemic) has what logP?
1.79

###

- method.description: Lipophilicity, log D of the compound in Octanol/PBS buffer at pH 7.4 at 5 to 150 uM by UV-Vis spectrophotometric analysis
- Assay type: physicochemical
- conditions.used: dose 5-150 µM
endpoint.name: logD at up to 150 µM
Answer using only a numeral; do not append any unit.

Looking for the measured logD at up to 150 µM of CCOC(=O)C(c1ccccc1)N(C)C1CCN(Cc2ccccc2)CC1 (racemic) , can you help?
1.72

###

- method.description: Lipophilicity, log P of the compound
- Format: physicochemical
- conditions.used: octanol/water
endpoint.name: logP
Write the number on its own, no unit after it.

If you can, please state the reported logP value of O=C(CCCN1CCC(O)(c2ccc(Cl)cc2)CC1)c1ccc(F)cc1 .
4.03

###

Here's what we have: Ki numbers for Sigma non-opioid intracellular receptor 1 (Homo sapiens).
Give just the number in nM; leave the unit off.

compound: COc1cc2c(cc1OC)C(=O)C(CC1CCN(Cc3ccccc3)CC1)C2 (configuration not stated)
quantitative.result: 15

Look up Ki: CN1CCN(CCc2ccc(Cl)c(Cl)c2)CC1
14

###

- target.of.assay: UniProt:Q12809
- Sequence (Q12809 whole entry): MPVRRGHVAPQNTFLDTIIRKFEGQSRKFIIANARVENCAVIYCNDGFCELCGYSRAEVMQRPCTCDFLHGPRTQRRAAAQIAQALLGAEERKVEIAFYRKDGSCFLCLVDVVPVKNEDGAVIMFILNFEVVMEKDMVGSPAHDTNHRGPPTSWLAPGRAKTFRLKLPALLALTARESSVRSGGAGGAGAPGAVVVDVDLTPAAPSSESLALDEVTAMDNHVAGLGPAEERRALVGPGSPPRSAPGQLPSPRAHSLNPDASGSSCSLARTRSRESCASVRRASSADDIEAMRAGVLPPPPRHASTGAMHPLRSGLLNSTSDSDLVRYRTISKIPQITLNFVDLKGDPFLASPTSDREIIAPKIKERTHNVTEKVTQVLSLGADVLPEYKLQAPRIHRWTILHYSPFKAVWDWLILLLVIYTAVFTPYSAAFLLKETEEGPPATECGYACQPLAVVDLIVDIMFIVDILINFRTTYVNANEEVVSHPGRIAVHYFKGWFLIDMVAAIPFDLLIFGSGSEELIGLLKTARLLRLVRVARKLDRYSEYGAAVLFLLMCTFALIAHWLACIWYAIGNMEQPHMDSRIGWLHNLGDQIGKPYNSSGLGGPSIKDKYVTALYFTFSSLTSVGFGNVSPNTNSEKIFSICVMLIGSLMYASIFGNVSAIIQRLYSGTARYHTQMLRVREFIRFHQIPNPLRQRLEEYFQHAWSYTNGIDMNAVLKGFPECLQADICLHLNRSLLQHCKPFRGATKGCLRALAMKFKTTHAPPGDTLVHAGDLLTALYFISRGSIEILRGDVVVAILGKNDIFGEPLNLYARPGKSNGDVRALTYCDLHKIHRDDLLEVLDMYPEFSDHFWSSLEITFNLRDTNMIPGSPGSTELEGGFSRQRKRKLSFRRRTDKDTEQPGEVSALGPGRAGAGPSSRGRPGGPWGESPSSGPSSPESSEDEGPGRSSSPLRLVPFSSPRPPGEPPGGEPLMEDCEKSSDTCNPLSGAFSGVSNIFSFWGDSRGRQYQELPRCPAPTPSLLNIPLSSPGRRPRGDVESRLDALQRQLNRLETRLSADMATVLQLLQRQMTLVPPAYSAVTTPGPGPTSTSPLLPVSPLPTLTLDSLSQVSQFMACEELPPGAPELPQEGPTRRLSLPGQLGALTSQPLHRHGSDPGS
- method.description: Inhibition of hERG in CHO-K1 cells
endpoint.name: IC50 (nM)
Numbers only; they are read as nM.

Reported IC50, molecule CCOC(=O)C(c1ccccc1)N(C)C1CCN(Cc2ccccc2)CC1 (racemic) : ____
1600
